Target: HDAC6 (Homo sapiens)
Sequence (Q9UBN7 whole entry): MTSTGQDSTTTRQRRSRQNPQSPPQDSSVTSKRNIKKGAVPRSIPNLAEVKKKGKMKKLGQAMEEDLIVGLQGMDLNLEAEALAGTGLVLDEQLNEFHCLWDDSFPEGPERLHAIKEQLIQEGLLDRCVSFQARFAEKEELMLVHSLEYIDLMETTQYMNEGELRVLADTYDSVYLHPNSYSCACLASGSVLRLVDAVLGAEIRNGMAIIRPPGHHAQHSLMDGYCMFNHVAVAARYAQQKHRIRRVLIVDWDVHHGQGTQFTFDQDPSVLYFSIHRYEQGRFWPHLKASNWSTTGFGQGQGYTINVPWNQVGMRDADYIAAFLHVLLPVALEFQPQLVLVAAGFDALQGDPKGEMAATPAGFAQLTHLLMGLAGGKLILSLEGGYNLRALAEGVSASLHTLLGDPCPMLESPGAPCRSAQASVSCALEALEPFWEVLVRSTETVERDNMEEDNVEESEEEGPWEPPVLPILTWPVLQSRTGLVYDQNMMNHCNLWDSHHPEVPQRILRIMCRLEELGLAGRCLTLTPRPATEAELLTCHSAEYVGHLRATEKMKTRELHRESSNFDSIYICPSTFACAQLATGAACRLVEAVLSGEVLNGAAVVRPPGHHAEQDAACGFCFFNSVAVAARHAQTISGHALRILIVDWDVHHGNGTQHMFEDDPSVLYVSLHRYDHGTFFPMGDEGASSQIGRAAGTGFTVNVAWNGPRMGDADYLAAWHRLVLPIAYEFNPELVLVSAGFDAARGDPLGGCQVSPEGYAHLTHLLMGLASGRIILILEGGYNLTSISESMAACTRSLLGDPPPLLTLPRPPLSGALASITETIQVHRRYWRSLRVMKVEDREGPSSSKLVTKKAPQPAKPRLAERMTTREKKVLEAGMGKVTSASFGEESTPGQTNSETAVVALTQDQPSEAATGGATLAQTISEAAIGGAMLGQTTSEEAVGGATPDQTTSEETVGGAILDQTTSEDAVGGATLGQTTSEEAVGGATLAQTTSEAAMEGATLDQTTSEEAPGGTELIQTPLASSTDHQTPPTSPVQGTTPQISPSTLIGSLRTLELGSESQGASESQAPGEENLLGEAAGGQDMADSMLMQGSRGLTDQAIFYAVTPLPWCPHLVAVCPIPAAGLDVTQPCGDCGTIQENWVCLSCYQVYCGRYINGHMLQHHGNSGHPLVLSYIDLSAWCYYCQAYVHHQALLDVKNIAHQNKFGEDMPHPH
Experiment: Biochemical HDAC6 inhibitory activity assay
Conditions: 10-dose IC50 mode, in singlet, 3-fold serial dilution starting at 1 μM; read-out: HDAC6 IC50
observable: IC50 (nM)
Numeric answer only, unit nM assumed.

What IC50 value was documented for this molecule, "C[C@H]1CN(Cc2ccc(Nc3nccc(-c4ccc(C(=O)NO)cc4)n3)cc2F)CCO1" ?
16

---

Reported IC50 values, HDAC1 (Homo sapiens, UniProt Q13547).
Kindly provide the numeric value in nM only, without the unit symbol.

1. CC1CN(C(=O)c2ccc(Nc3nccc(-c4ccc(C(=O)NO)cc4)n3)cc2F)CCO1 (centres unmarked) [Compound I-5] | 1640

Kindly consider the entry below.
# IC50 lookup, item CC1CN(Cc2ccc(Nc3nccc(-c4ccc(C(=O)NO)cc4)n3)cc2F)CCO1 (racemic) [Compound I-8]
1180

// data source = patent US20260109690A1
